Would you mind telling me the reported IC50 of each entry?
- Assayed System: CYP2D6 (Homo sapiens, UniProt P10635)
- Construct: purchased BD Gentest
- Sequence (P10635 whole entry): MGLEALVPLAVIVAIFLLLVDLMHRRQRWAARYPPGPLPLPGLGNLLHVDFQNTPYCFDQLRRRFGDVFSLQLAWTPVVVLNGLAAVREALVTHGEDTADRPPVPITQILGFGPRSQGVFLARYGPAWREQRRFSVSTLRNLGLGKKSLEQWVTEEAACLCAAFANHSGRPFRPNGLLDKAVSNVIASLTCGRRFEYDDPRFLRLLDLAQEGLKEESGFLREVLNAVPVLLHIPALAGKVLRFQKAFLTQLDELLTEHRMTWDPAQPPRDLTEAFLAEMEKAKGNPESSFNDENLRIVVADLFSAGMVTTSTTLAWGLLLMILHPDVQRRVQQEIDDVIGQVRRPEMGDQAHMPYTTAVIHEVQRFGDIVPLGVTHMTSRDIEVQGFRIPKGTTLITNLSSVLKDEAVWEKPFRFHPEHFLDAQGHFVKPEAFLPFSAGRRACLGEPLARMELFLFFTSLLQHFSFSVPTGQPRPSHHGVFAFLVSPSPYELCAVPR
- Test: CYP inhibition assay 2D6
- Format: in vitro ADME

Data request, read-out IC50, for "Nc1ccccc1-c1ccccc1NCc1nc2ccccc2o1" > 50 µM

Data request, read-out IC50, for "CNc1ccc(-c2ccccc2NCc2nc3ccccc3o2)cc1" > 50 µM

Data request, read-out IC50, for "CNc1cccc(-c2ccccc2NCc2nc3ccccc3o2)c1" > 50 µM

Data request, read-out IC50, for "Cc1ccc(-c2ccccc2NCc2nc3ccccc3o2)s1" > 50 µM

Data request, read-out IC50, for "Fc1cccc(-c2ccccc2NCc2nc3ccccc3o2)c1" > 50 µM

Data request, read-out IC50, for "Fc1ccccc1-c1ccccc1NCc1nc2ccccc2o1" > 50 µM

Data request, read-out IC50, for "c1csc(-c2ccccc2NCc2nc3ccccc3o2)c1" > 50 µM

Data request, read-out IC50, for "Nc1cccc(-c2ccccc2NCc2nc3ccccc3o2)c1" > 50 µM
